Reference for the values: the OligoGym collection

Entries and their remaining target (mRNA or protein) (fraction of control) values follow.
biological target: MAP2K4; conditions: ASO; also: test concentration or dose not given here
These antisense oligonucleotides have a phosphorothioate backbone; sugars and methylation of C are not fully specified.
Answer field: number only, no words.

# sequenceChain, systemTested, observed
data = [
    ("GAGTAAACCTTGCTGTAGAT", "MAP2K4", 0.73),
    ("GTGAAATCCCAGTGTTGTTC", "MAP2K4", 0.91),
]

Here `ATGGAGGATGATGGCTTGCT` was tested on MAP2K4, and its remaining target (mRNA or protein) (fraction of control) came to 0.83

Here `TAGCAGCGATATCAATCGAC` was tested on MAP2K4, and its remaining target (mRNA or protein) (fraction of control) came to 0.55

Here `ATGCTGCTGACGGCCGGGTG` was tested on MAP2K4, and its remaining target (mRNA or protein) (fraction of control) came to 0.76

----------
biological target: RHOG; conditions: ASO
These antisense oligonucleotides have a phosphorothioate backbone; sugars and methylation of C are not fully specified.
endpoint: remaining target (mRNA or protein) (fraction of control)
Answer field: number only, no words.

Here `GTGCAGTTGCTGTAGTGA` was tested on RHOG, and its remaining target (mRNA or protein) (fraction of control) came to 0.9

Here `GGGTCCAACCTTGGCTTG` was tested on RHOG, and its remaining target (mRNA or protein) (fraction of control) came to 0.42

Here `GCATCGTGGGTGCAGTTG` was tested on RHOG, and its remaining target (mRNA or protein) (fraction of control) came to 0.53

Here `GGTTCACTGTGCGCCCGT` was tested on RHOG, and its remaining target (mRNA or protein) (fraction of control) came to 0.84

Here `GCGCGCTGTAATTGTCGA` was tested on RHOG, and its remaining target (mRNA or protein) (fraction of control) came to 0.64

Here `GCAGCCTCCAAGCCAAGT` was tested on RHOG, and its remaining target (mRNA or protein) (fraction of control) came to 0.58

Here `AACTGTGTGGAAAGCTGG` was tested on RHOG, and its remaining target (mRNA or protein) (fraction of control) came to 0.92

Here `ACCTCTGGATGCCACTTG` was tested on RHOG, and its remaining target (mRNA or protein) (fraction of control) came to 0.65

Here `GACCTGGTGCCCCTCCCG` was tested on RHOG, and its remaining target (mRNA or protein) (fraction of control) came to 0.65

----------
biological target: AKT3; conditions: ASO
These antisense oligonucleotides have a phosphorothioate backbone; sugars and methylation of C are not fully specified.
I'd appreciate it if you marked entries met when remaining target (mRNA or protein) (fraction of control) is lower than 0.6 and not met when it is not.

Illustrative cases are given below, each with its answer.
# sequenceChain, className
records = [
    ("TCCCCTCTTCTGAACCCA", "met"),
    ("AAGTTTCTCATGGTCCTG", "met"),
    ("CTAGGCCCCACCAGTCTA", "met"),
    ("GCCTCTGCAGTCTGTCTG", "not met"),
    ("CCATCTGTCTTCAAAAGG", "not met"),
]

Please let me know if `CTGCTCGGCCATAGTCAT` shows remaining target (mRNA or protein) (fraction of control) below 0.6.
met

Please let me know if `GCCAGTTTACTCCAGAGA` shows remaining target (mRNA or protein) (fraction of control) below 0.6.
met

Please let me know if `GCGTCATCTGGTCCTCCA` shows remaining target (mRNA or protein) (fraction of control) below 0.6.
met

Please let me know if `GTCTGCTACAGCCTGGAT` shows remaining target (mRNA or protein) (fraction of control) below 0.6.
not met

----------
Entries and their remaining target (mRNA or protein) (fraction of control) values follow.
target: PCK2; conditions: ASO
These antisense oligonucleotides have a phosphorothioate backbone; sugars and methylation of C are not fully specified.
Answer field: number only, no words.

Use these answered entries as a reference point.
# sequenceChain, observed
records = [
    ("TTGCACGGCCACTGGCTCAC", 0.94),
    ("TGGGTGTCTCTCGGGCACTG", 0.9),
    ("CACCGTCTTGCTCTCTACTC", 0.85),
]

Please find the next sequence below.
Here `GTAGTGCCCGAAGTTGTAGC` was tested on PCK2, and its remaining target (mRNA or protein) (fraction of control) came to 0.77

----------
target: PDPK1; details: ASO
These antisense oligonucleotides have a phosphorothioate backbone; sugars and methylation of C are not fully specified.
Entries are sorted into classes by remaining target (mRNA or protein) (fraction of control) as follows: Low (below 0.4), Mid (0.4 to below 0.7), High (0.7 or more)

# sequenceChain, systemTested, className
rows = [
    ("CAAGTACTCTAAAGCAGA", "PDPK1", "Mid"),
]

Which category does the recorded remaining target (mRNA or protein) (fraction of control) put `GGTCTCTTGCCTTAGGGA` in?
Low

Which category does the recorded remaining target (mRNA or protein) (fraction of control) put `TTTATGATATGTCGCTTC` in?
High

----------
molecular target: SMAD1; conditions: ASO
These antisense oligonucleotides have a phosphorothioate backbone; sugars and methylation of C are not fully specified.
endpoint: remaining target (mRNA or protein) (fraction of control)
Answer field: number only, no words.

Use these answered entries as a reference point.
# sequenceChain, systemTested, observed
records = [
    ("CAGCCTGCCATCCAGAGA", "SMAD1", 0.46),
    ("TGCTACTGTCACTAAGGC", "SMAD1", 0.12),
    ("CCCACACGATTGTTGAGC", "SMAD1", 0.35),
]

Please find the next sequence below.
get_value(item= `TGACTCATCCATCCTTCA` , readout=remaining target (mRNA or protein) (fraction of control)) returns 0.19

----------
target: RHOC; conditions: ASO
These antisense oligonucleotides have a phosphorothioate backbone; sugars and methylation of C are not fully specified.
Entries are sorted into classes by remaining target (mRNA or protein) (fraction of control) as follows: range 1 = under 0.3, range 2 = from 0.3 up to 0.7, range 3 = 0.7 and over

# sequenceChain, className
rows = [
    ("GAGCCTTCAGTATGGAGC", "range 2"),
    ("GGAAGGGCAGGGCATAGG", "range 3"),
    ("GCTGAAGTTCCCAGGCTG", "range 3"),
    ("TCAAAGACAGTAGGGACG", "range 3"),
    ("CTCCTGGTGTGCTCGTCT", "range 2"),
    ("CACTTTCCTGTGAGCCAG", "range 1"),
    ("CTTGTTCTTGCGGACCTG", "range 1"),
    ("GGCCATCTCAAACACCTC", "range 2"),
    ("CCCCTCCGACGCTTGTTC", "range 2"),
    ("ACTCTGGGTCCCTACTGC", "range 3"),
]

Which category does the recorded remaining target (mRNA or protein) (fraction of control) put `TAAAGTGCTGGTGTGTGA` in?
range 2

Which category does the recorded remaining target (mRNA or protein) (fraction of control) put `GTATGGAGCCCTCAGGAG` in?
range 2

Which category does the recorded remaining target (mRNA or protein) (fraction of control) put `GAAAATGGAGCCTTCAGT` in?
range 3

----------
target: IKBKB; details: ASO
These antisense oligonucleotides have a phosphorothioate backbone; sugars and methylation of C are not fully specified.
endpoint: remaining target (mRNA or protein) (fraction of control)
Answer field: number only, no words.

# sequenceChain, observed
data = [
    ("CTCGAAGCTCTGAATTGC", 0.48),
    ("GACAACAGTCTTCTCATC", 0.77),
    ("AGTTTATCTGATGTGATC", 0.8),
    ("GGGCTTCCACTGACAGGA", 0.18),
    ("GCTTTAGATCCCGATGGA", 0.46),
]

Here `GGGCTCTTGAAGGATACA` was tested on IKBKB, and its remaining target (mRNA or protein) (fraction of control) came to 0.39

Here `CCCCACATGTCTGCGTTG` was tested on IKBKB, and its remaining target (mRNA or protein) (fraction of control) came to 0.12

----------
Entries and their remaining target (mRNA or protein) (fraction of control) values follow.
biological target: MAP2K1; conditions: ASO
These antisense oligonucleotides have a phosphorothioate backbone; sugars and methylation of C are not fully specified.
Answer field: number only, no words.

Use these answered entries as a reference point.
# sequenceChain, observed
records = [
    ("AAGAGTAGAATCTTGGCA", 0.9),
    ("ACTAAGTATCCCACACAG", 0.16),
    ("GCAGTTTTGGAGGAGGCT", 0.32),
]

Please find the next sequence below.
get_value(item= `TACAACAGCATTGGTACT` , readout=remaining target (mRNA or protein) (fraction of control)) returns 0.23
